B1: glmS ribozyme (parent)
chain: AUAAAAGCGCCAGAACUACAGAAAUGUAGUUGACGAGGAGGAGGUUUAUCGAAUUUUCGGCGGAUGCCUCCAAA

# Variants of: B1
# protocol_notes: self-cleavage kobs at 2500 uM GlcN6P; higher = faster cleavage; RNA array
# conditions_used: with glucosamine-6-phosphate
Variants at the floor of the assay were thinned out.
Measured self-cleavage kobs at 2500 uM GlcN6P, listed per entry for reference.
outcome_measure: self-cleavage kobs at 2500 uM GlcN6P

>>> result("G32A U54A")
"0.00157 s⁻¹"
>>> result("G32A G43U G66A C68G")
"0.00088 s⁻¹"
>>> result("G29U U45C U55G")
"7.82e-05 s⁻¹"
>>> result("C11U A52C")
"< 1e-05 s⁻¹"
>>> result("C8A C10A A42G G60U")
"< 1e-05 s⁻¹"
>>> result("A39C C61U C71U")
"< 1e-05 s⁻¹"
>>> result("A14U U65A C70U")
"0.000248 s⁻¹"
>>> result("G41U U47G G51U")
"< 1e-05 s⁻¹"
>>> result("U49G U55A")
"0.000539 s⁻¹"
>>> result("C8G A64G")
"< 1e-05 s⁻¹"
>>> result("C34U G43U G59C")
"< 1e-05 s⁻¹"
